Assay: Induction of DNA photocleavage in open circular plasmid DNA (unknown origin) at 15 ug by agarose gel electrophoresis in presence of UV light
The source made the active and inactive calls. The calls are words filed in the database; no cut-off is given here.
Outcome field: choose from 1 (active), 0 (inactive)

See these solved cases before continuing.
Cc1cc(C)n(CC(=O)c2ccc([N+](=O)[O-])cc2)n1; 1
Cc1cc(C)n(CC(=O)c2ccc(F)cc2F)n1; 0

**Query** Hello, I am checking results. What call was entered for Cc1cc(C)n(CC(=O)c2ccc(F)cc2)n1 ?
**Result** 1

**Query** Hello, I am checking results. What call was entered for Cc1cc(C)n(CC(=O)c2ccc(Br)cc2)n1 ?
**Result** 1

----------
Test: Induction of DNA photocleavage in supercoiled plasmid DNA (unknown origin) at 15 ug by agarose gel electrophoresis in presence of UV light
Calls of active or inactive are those of the source. The rule behind the calls is not given here.
Outcome field: choose from active, inactive

See these solved cases before continuing.
Cc1cc(C)n(CC(=O)c2ccc(F)cc2)n1; active
Cc1cc(C)n(CC(=O)c2ccc(Br)cc2)n1; active

**Query** Hello, I am checking results. What call was entered for Cc1cc(C)n(CC(=O)c2ccc([N+](=O)[O-])cc2)n1 ?
**Result** active

**Query** Hello, I am checking results. What call was entered for Cc1cc(C)n(CC(=O)c2ccc(F)cc2F)n1 ?
**Result** inactive

----------
Here, each record is paired with measured diameter of the inhibition zone (DIZ) data.
Test system: Klebsiella pneumoniae
Test: Antibacterial activity against Klebsiella pneumoniae assessed as diameter of growth inhibition zone after 24 hrs by two fold serial dilution method
Format: functional

CC1(C)S[C@@H]2[C@H](NC(=O)[C@H](N)c3ccccc3)C(=O)N2[C@H]1C(=O)O [AMPICILLIN]; 13 mm
Cc1cc(C)n(CC(=O)c2ccccc2)n1; 10 mm
Cc1cc(C)n(CC(=O)c2ccc(F)cc2)n1; 9 mm

Sample Cc1cc(C)n(CC(=O)c2ccc3ccccc3c2)n1 ; diameter of the inhibition zone (DIZ) observed: 11 mm

----------
Here, each record is paired with measured MIC data.
Test system: Staphylococcus aureus
Assay: Antibacterial activity against Staphylococcus aureus assessed as growth inhibition after 24 hrs by two fold serial dilution method
Format: functional
API: value field is a number in µg/mL; no unit string.

Previously resolved entries follow.
Cc1cc(C)n(CC(=O)c2ccc(Br)cc2)n1; 32
Cc1cc(C)n(CC(=O)c2ccccc2F)n1; 256
Cc1cc(C)n(CC(=O)c2ccc3ccccc3c2)n1; 8
Cc1cc(C)n(CC(=O)c2ccc(F)cc2F)n1; 256
Cc1cc(C)n(CC(=O)c2ccc(Cl)cc2)n1; 256
CC1(C)S[C@@H]2[C@H](NC(=O)[C@H](N)c3ccccc3)C(=O)N2[C@H]1C(=O)O; 2
Cc1cc(C)n(CC(=O)c2ccc([N+](=O)[O-])cc2)n1; 128
Cc1cc(C)n(CC(=O)c2ccc(F)cc2)n1; 256
Cc1cc(C)n(CC(=O)c2ccccc2)n1; 512

Let's switch to this compound now.
Sample Cc1ccc(C(=O)Cn2nc(C)cc2C)cc1 ; MIC observed: 256

----------
Test system: HCT-116
Assay: Anticancer activity against human HCT116 cells assessed as cell viability at 50 uM after 48 hrs by MTT assay
Type: functional
Conditions: HCT-116, 48 h, read-out: Activity
Here, each record is paired with measured viability at 50 µM data.
API: value field is a number in %; no unit string.

Previously resolved entries follow.
Cc1cc(C)n(CC(=O)c2cccc3ccccc23)n1; 34.6
Cc1cc(C)n(CC(=O)c2ccccc2)n1; 52.4
Cc1cc(C)n(CC(=O)c2ccc3ccccc3c2)n1; 36.5

Let's switch to this compound now.
Sample Cc1cc(C)n(CC(=O)c2ccc(Br)cc2)n1 ; viability at 50 µM observed: 47.4
